Condition summary: buffer; pH 7.4; 6.0 h; 150.0 µM

Item smiles | solubility kinetic
NC(=O)C1CCN(c2nc(-c3ccccc3C(F)(F)F)cs2)CC1 | > 52 µg/mL
O=C(c1ccc(C(=O)N2CCC(N3CCCC3)CC2)c(Nc2ccccc2)c1)N1CCC(N2CCCC2)CC1 | 63.8 µg/mL
O=S(=O)(Nc1cccc2ccccc12)c1ccc(NCc2ccc(Br)cc2O)cc1 | < 1 µg/mL
CCCCCCN(CCCCCC)C(=O)Cc1c(-c2ccc(F)cc2)[nH]c2ccccc12 | < 1 µg/mL
Cc1ccc(NS(=O)(=O)c2cc3c(cc2N[C@H](C)CO)NC(=O)CC3)cc1C | > 60 µg/mL

###

Each item that follows carries a reported solubility kinetic.
Condition summary: buffer; pH 7.4; 6.0 h; 150.0 µM

Compound | Output unit | Qualifier symbol | solubility kinetic
CC1=C[C@@H](CN2C(=O)C(C)=C(C)C2=O)[C@H](C(C)C)C[C@H]1Cc1nc2c(C)cccc2[nH]1 | µg/mL | = | 3.65
COc1cccc(CNc2ccc(S(=O)(=O)Nc3ccc(C4CCNCC4)cc3)cc2)c1O | µg/mL | = | 58.4
CC(=O)N1CCc2c(sc3c2c(=O)n(-c2ccccc2Cl)c(=O)n3Cc2cccc(C)c2)C1 | µg/mL | = | 2.16
COc1cccc(NS(=O)(=O)c2ccc(NCc3cccc(OC)c3O)cc2)c1 | µg/mL | = | 1.92
Cc1c(Cl)cccc1-n1ncc(C(=O)Nc2ccc(Br)cc2F)c1C1CCNCC1 | µg/mL | > | 72
Cn1cncc1[C@@](N)(c1ccc(Cl)cc1)c1ccc2c(c1)c(-c1cccc(Cl)c1)cc(=O)n2C | µg/mL | < | 1
O=C(Nc1cccnc1)c1cccs1 | µg/mL | > | 30
COc1cc(C2c3c(oc4cc(C)c(C)cc4c3=O)C(=O)N2CCCN2CCOCC2)ccc1O (stereo not given) | µg/mL | > | 71
COc1ccc(-c2csc(NC(=O)c3ccccc3NS(=O)(=O)c3ccc(C)cc3)n2)cc1 | µg/mL | < | 1
CNc1oc(-c2cccc(Cl)c2Cl)nc1C#N | µg/mL | < | 1

###

Each item that follows carries a reported solubility kinetic.
Condition summary: buffer; pH 7.4; 6.0 h; 150.0 µM

Compound | solubility kinetic
CN[C@@H](C)C(=O)N[C@@H]1C(=O)N(Cc2c(C)ccc3ccccc23)c2ccc(C#N)cc2N(C(C)=O)[C@H]1C | > 73 µg/mL
CC[C@H]1CN(C)[C@H]2Cc3c([nH]c4ccccc34)C(=O)C[C@H]1[C@H]2C(=O)OC | > 52 µg/mL
O=C(Nc1ccc2c(N3CCOCC3)ncnc2c1)c1cccc(Br)c1 | 9.48 µg/mL
Cc1cc(CNC(=O)c2ccc3c(c2)n(CC2CC2)c(=O)n3C2CCCCC2)on1 | 15.6 µg/mL
O=C(Nc1ccc([S+](=O)([O-])Nc2nccs2)cc1)c1ccn[nH]1 | > 52 µg/mL
Cc1cc(C)c(CNC(=O)c2nc(-c3cccc(CO)c3)cc3c2ccn3C)c(=O)[nH]1 | 24.7 µg/mL
NC(=O)C1CCN(c2nc(-c3ccc4occc(=O)c4c3)cs2)CC1 | > 52 µg/mL
COc1ccc(C(=O)CCN(C)C)cc1F | > 33 µg/mL
O=c1cc(CSc2ccc(Cl)cc2)nc(-c2ccccn2)[nH]1 | 1.18 µg/mL
O=C(c1cnn(-c2cccc(F)c2)c1-n1cccc1)N1CCN(c2ccccc2F)CC1 | 1.11 µg/mL
CCc1ccccc1C(=O)N1CCc2cc(-c3nc(NC(=O)Cc4ccc5c(c4)OCO5)sc3C)ccc21 | < 1 µg/mL
Cc1ccc(-c2cc(C(=O)Nc3ccc(-c4nn[nH]n4)cc3)c3ccccc3n2)cc1C | 7.58 µg/mL
CCS(=O)(=O)N1CC(CC#N)(n2cc(-c3ncnc4[nH]ccc34)cn2)C1 | > 55 µg/mL
COc1ccccc1NC(=O)c1oc2ccccc2c1NC(=O)Cc1cccs1 | < 1 µg/mL
CCOC(=O)c1cc(C)sc1NC(=O)c1ccc(Cl)s1 | < 1 µg/mL
Oc1ccc(CNc2ccc(F)cc2F)c2cccnc12 | 1.22 µg/mL
CCNC(=O)c1noc(-c2cc(C(C)C)c(O)cc2O)c1-c1ccc(CN2CCOCC2)cc1 | > 69 µg/mL
Cc1cc(N2CCN(c3ccccc3)CC2)nc(-n2nc(C)cc2C)n1 | 40 µg/mL
O=C(O)c1ccnc2cc(C(OCC3CCC(F)(F)CC3)c3ccccc3Cl)[nH]c12 (stereo unspecified) | > 64 µg/mL
O=C(Nc1ccccc1)C1CC(=O)N(c2n[nH]c3cc(Br)ccc23)C1 (stereo unspecified) | < 1 µg/mL
Fc1cnc(-c2ccccc2C(F)F)nc1NCc1ccc(-n2ccnn2)cc1 | < 1 µg/mL
